List of abundance fitness values.
B1: Far upstream element-binding protein 2, residues 142 to 214; numbered along this chain, Q92945 (parent)
chain: RTSMTEEYRVPDGMVGLIIGRGGEQINKIQQDSGCKVQISPDSGGLPERSVSLTGAPESVQKAKMMLDDIVSR

# Variants of: B1
# protocol_notes: abundance fitness (aPCA) (normalised: wild type 0, dead -1); higher = more abundant; growth selection in yeast, the domain comes from the species named
# run_conditions: Homo sapiens
Enter the number alone.

>  <sequence_data>
RTSMTEEYRVPDGMVGLIIGRGGEAINKIQQDSGCKVQISPDSGGLPERSVSLTGAPESVQKAKMMLDDIVSR [Q25A]

>  <abundance fitness>
-0.004

$$$$
>  <sequence_data>
RTSMTEEYRVPDGMVGLIIGRGGEQINKIQQDSGCHVQISPDSGGLPERSVSLTGAPESVQKAKMMLDDIVSR [K36H]

>  <abundance fitness>
-0.06

$$$$
>  <sequence_data>
RTSMTEEYRVPDGMVGLIIGRGGEQMNKIQQDSGCKVQISPDSGGLPERSVSLTGAPESVQKAKMMLDDIVSR [I26M]

>  <abundance fitness>
-0.054

$$$$

# evaluate next
(Q) Please report the recorded abundance fitness for RTSMTEEYRVPDGMVGLIIGRGGEQINKIQQDSGCKVQISPDSGGLPERSVQLTGAPESVQKAKMMLDDIVSR [S52Q] .
(A) -0.011
